targetOrTestSystem: DRB1*0101 (DR1) (Homo sapiens, UniProt P01903+P01911, A100R/D57E/F55L/F60I/F76Y/I96L/L162R/M171V/P40L/Q125E/R42F/V115G/Y59C)
Construct: used as sources of human HLA class II molecules; endogenous in cells; host or cells: LG2 (EBV-transformed homozygous B cell line)
experimentalProtocol: Class II peptide-binding assay, DR1;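 note: competition assay: unlabeled test peptides inhibit binding of a radiolabeled probe peptide to purified DR, with half-maximal inhibition taken as an approximate dissociation constant Kd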
conditionParameters: Table V B) Correct Predictions; read-out: Binding Capacity (IC50% nM) DR1
Ends that are not written are not given here.
Overview of reported IC50 across a group of sequences:

{"chainSequence": "RVYQEPQVSPPQRAET [Peptide 1136.59.01a]", "IC50": "130 nM"}

q: For the sequence LAAIIFLFGPPTALRS [Peptide 1136.28] , what IC50 is on record?
a: 0.23 nM

Measured values drawn from patent EP1388586A2 for this set.
